From: patent US20250333418A1

# target.under.test: human CB1 receptor (Homo sapiens)
# Construct: expressed in transfected cells; host or cells: HEK293
# Sequence (P21554 whole entry): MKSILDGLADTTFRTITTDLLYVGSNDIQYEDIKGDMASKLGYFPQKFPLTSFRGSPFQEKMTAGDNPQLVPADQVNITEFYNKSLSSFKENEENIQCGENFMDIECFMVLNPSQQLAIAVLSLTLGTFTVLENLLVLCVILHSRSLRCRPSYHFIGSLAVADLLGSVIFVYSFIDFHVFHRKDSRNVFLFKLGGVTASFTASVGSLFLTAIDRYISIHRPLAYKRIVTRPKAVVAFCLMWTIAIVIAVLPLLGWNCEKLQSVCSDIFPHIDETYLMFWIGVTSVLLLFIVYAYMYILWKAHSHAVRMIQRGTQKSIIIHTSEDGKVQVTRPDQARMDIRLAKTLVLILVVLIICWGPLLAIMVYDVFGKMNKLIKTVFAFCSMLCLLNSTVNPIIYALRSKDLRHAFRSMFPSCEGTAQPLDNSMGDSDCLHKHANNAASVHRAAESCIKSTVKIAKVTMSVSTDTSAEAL
# test.method.notes: bioSensAll β-arrestin2 plasma membrane translocation (+GRK2) BRET biosensor assay in HEK293 cells transfected with hCB1; test compound added before EC75-80 of agonist CP55,940 (100 nM)
# Assay type: cell-based
# run.parameters: βArrestin2 (+GRK2) BRET biosensor, vs CP55,940 100 nM (EC75-80), read-out: CB1 wt βarr2 IC50
pIC50: −log10 of the molar value.
reported.endpoint: pIC50

# count of solved cases: 2
>>> df
                            compound_smiles  reported_endpoint  obs_value
0  Cc1cnn(-c2nc(N3CCC(C(F)(F)F)CC3)c3nc(-c4ccccc4Cl)n(-c4ccc(Cl)cc4)c3n2)c1              pIC50       7.54
1  Cc1ccn(-c2nc(N3CCC(C(F)(F)F)CC3)c3nc(-c4ccccc4Cl)n(-c4ccc(Cl)cc4)c3n2)n1              pIC50       7.95

(I) CN(CC1(O)CC1)c1nc(N2CCC(C)(C(N)=O)CC2)c2nc(-c3ccccc3Cl)n(-c3ccc(Cl)cc3)c2n1
(II) Cc1cnn(-c2nc(N3CCC(C)(C(N)=O)CC3)c3nc(-c4ccccc4Cl)n(-c4ccc(Cl)cc4)c3n2)c1
(Q) // pick min by pIC50: I , II Answer by quoting the chosen item's label.
(A) II
(II: 7.91, I: 8.13)
